Assay overview: Solubility assessment in water (aqueous solubility)
Type: physicochemical
Stated conditions: thermodynamic from solid, Citrate salt
Readout type: solubility at 1.5 min (µg/mL)
One number for each entry, in µg/mL.

In: Please list solubility at 1.5 min recorded for the compound N#Cc1ccc(Oc2cc(Cl)cc(Cl)c2)c(S(=O)(=O)N2CCC(NC(=O)NCCN3CCOCC3)CC2)c1
Out: 800

###

Hi there, I'd appreciate the recorded solubility at 1.5 min for every entry that follows.
Assay overview: Solubility assessment in water (aqueous solubility)
Type: physicochemical
Stated conditions: thermodynamic from solid, HBr salt
One number for each entry, in µg/mL.

CCN1CCN(S(=O)(=O)c2cc([N+](=O)[O-])ccc2Oc2cc(Cl)cc(Cl)c2)CC1 : 1000
CCN1CCN(S(=O)(=O)c2cc(C#N)ccc2Oc2cc(C)cc(C)c2)CC1 : 30
CC(C)N1CCN(S(=O)(=O)c2cc(C#N)ccc2Sc2cc(Cl)cc(Cl)c2)CC1 : 200

Turning now to a further record.
In: Please list solubility at 1.5 min recorded for the molecule CN1CCN(S(=O)(=O)c2cc(C#N)ccc2Sc2cc(Cl)cc(Cl)c2)CC1
Out: 400
